// reported KD 5(+)/7(+) per item
# TARGET: T1, human C1s (human, UniProt P09871 16-688)
# T1 construct: also called hC1s; serum-derived human C1s (CompTech)
# T1 sequence: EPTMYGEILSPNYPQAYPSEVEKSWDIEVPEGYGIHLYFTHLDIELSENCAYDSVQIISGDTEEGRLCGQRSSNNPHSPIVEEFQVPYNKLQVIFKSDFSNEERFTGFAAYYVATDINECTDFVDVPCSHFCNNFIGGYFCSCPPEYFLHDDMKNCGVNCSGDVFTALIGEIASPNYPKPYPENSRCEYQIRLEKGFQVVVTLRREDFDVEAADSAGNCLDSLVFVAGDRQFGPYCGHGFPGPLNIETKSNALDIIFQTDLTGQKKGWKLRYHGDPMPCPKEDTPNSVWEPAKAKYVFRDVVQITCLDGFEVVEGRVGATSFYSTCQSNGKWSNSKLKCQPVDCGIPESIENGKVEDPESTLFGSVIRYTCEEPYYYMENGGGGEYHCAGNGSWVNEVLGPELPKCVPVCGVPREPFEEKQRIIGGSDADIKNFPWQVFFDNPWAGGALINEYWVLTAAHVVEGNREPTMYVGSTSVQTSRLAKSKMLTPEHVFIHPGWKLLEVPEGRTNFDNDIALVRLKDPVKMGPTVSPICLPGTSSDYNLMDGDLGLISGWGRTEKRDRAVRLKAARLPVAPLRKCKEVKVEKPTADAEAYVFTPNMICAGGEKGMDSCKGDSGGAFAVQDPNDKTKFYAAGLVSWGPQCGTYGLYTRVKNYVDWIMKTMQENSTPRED
# ASSAY: SPR; KD pH 5.8 1.2 mM Ca / KD pH 7.4 1.2 mM Ca
No unit in the answer, please; the number alone is enough.

Would you kindly share the measured KD 5(+)/7(+) for C1_IPN92H0033-SG4GK/IPN93L0029-SK1 (antibody, human IgG4 S228P, kappa, name in Kabat numbering, V domains shown, also called IPN92H0033/IPN93L0029) VH: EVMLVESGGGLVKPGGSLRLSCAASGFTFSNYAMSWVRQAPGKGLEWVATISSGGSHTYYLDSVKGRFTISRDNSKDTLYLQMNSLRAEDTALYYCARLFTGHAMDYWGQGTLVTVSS VL: QIVLTQSPATLSLSPGERATLSCTASSSVSSSYLHWYQQKPGKAPKLWIYSTSNLASGVPSRFSGSGSGTDYTLTISSLQPEDFATYYCHQYHRLHPITFGQGTKLEIKR ?
1.6

Would you kindly share the measured KD 5(+)/7(+) for C1_IPN92H0026-SG4GK/IPN93L0021-SK1 (antibody, human IgG4 S228P, kappa, name in Kabat numbering, V domains shown, also called IPN92H0026/IPN93L0021) VH: EVMLVESGGGLVKPGGSLRLSCAASGFTFSNYAMSWVRQAPGKGLEWVATISSGGSHTYYLDSVKHRFTISRDNSKDTLYLQMNSLRAEDTALYYCARLFTGYAMDYWGQGTLVTVSS VL: QIVLTQSPATLSLSPGERATLSCTASSSVSSSYLHWYQQKPGKAPKLWIYSTSNLASGVPSRFSGSGSGTDYTLTISSLQPEDFATYYCHQYHRLPPITFGQGTKLEIKR ?
2.4

Would you kindly share the measured KD 5(+)/7(+) for C1_IPN92H0038-SG4GK/IPN93L0030-SK1 (antibody, human IgG4 S228P, kappa, name in Kabat numbering, V domains shown, also called IPN92H0038/IPN93L0030) VH: EVMLVESGGGLVKPGGSLRLSCAASGFTFSNYAMSWVRQAPGKGLEWVATISSGGSHTYYLDSVKHRFTISRDNSKDTLYLQMNSLRAEDTALYYCARLFTGHAMDYWGQGTLVTVSS VL: QIVLTQSPATLSLSPGERATLSCTASSSVSSSYLHWYQQKPGKAPKLWIYSTSNLASGVPSRFSGSGSGTDYTLTISSLQPEDFATYYCHQYYRHHPITFGQGTKLEIKR ?
3.5

Would you kindly share the measured KD 5(+)/7(+) for C1_IPN92H0038-SG4GK/IPN93L0028-SK1 (antibody, human IgG4 S228P, kappa, name in Kabat numbering, V domains shown, also called IPN92H0038/IPN93L0028) VH: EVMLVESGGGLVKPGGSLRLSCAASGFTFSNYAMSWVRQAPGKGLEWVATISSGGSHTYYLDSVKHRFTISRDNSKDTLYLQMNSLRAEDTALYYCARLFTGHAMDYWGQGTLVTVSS VL: QIVLTQSPATLSLSPGERATLSCTASSSVSSSYLHWYQQKPGKAPKLWIYSTSNLASGVPSRFSGSGSGTDYTLTISSLQPEDFATYYCHQYHRHPPITFGQGTKLEIKR ?
7.5

Further cases:
Would you kindly share the measured KD 5(+)/7(+) for C1_IPN92H0038-SG4GK/IPN009VK3-SK1 (antibody, human IgG4 S228P, kappa, name in Kabat numbering, V domains shown, also called IPN92H0038/IPN009VK3) VH: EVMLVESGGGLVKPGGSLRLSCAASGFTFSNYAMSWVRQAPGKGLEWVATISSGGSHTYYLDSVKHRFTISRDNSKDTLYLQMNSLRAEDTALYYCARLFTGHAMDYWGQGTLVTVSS VL: QIVLTQSPATLSLSPGERATLSCTASSSVSSSYLHWYQQKPGKAPKLWIYSTSNLASGVPSRFSGSGSGTDYTLTISSLQPEDFATYYCHQYYRLPPITFGQGTKLEIKR ?
1
